test system: HCC-2998 colon; experiment: NCI-60 one-dose screen, 48 h (100 = growth as untreated, 0 = no growth, -100 = all killed); conditions: 10 µM unless noted
Compounds without any hit were thinned out: in the full panel of roughly 83,000, 20% have a hit.
Property label: growth (%)
Dear colleague, please return just the value in %, with no unit written.

Example entries and their recorded answers appear below.
Enquiry: Request the reported growth associated with CCCCCCC(O)(c1ccc(F)cc1)C(CN1CCOCC1)c1ccccc1 (centres undefined)
Return: 23.3

Enquiry: Would you mind doing `O=C(CSc1ccc2nnc(-c3cccc(F)c3)n2n1)Nc1ccc2c(c1)OCO2` as well?
Return: 109

Enquiry: Would you mind doing `COc1ccc2c(c1)C=C1CSCC3=Cc4cc(OC)ccc4OC13O2` as well?
Return: 9.67

Enquiry: Would you mind doing `Nc1nc2c(ncn2[C@@H]2O[C@H](CS)[C@@H](O)[C@H]2O)c(=O)[nH]1` as well?
Return: 104

Enquiry: Would you mind doing `COC(=O)[C@H]1CCCN1C(=O)[C@H]1CCCN1C(=O)[C@H](Cc1c[nH]c2ccccc12)NC(=S)Nc1cc(C(F)(F)F)cc(C(F)(F)F)c1` as well?
Return: 16.1

---
Enquiry: Request the reported growth associated with `CN1CCN(Cc2ccc(C(=O)Nc3cncc(C#Cc4cnc(N)c5ccccc45)c3)cc2C(F)(F)F)CC1`
Return: -52.6

Enquiry: Would you mind doing `CCOC(=O)c1c2c(c(C)n1Cc1ccc(OC)cc1)-c1oncc1CC2` as well?
Return: 106

Enquiry: Would you mind doing `COc1ccc(Cn2cc(Cn3cc(C=C4C(=O)NC(=O)NC4=O)c4ccccc43)nn2)cc1` as well?
Return: 109

Enquiry: Would you mind doing `COc1ccc2[nH]c(O)c(N=NC(=O)c3oc4ccccc4c3C)c2c1` as well?
Return: 45.5

* * *

system: OVCAR-3 ovarian; experiment: NCI-60 one-dose screen, 48 h (100 = growth as untreated, 0 = no growth, -100 = all killed); details: 10 µM unless noted
The panel holds about 83,000 compounds, 20% with a hit somewhere; the sample as a whole holds those more often.
Recorded growth for the following compounds
Dear colleague, please return just the value in %, with no unit written.

Enquiry: Return growth measured with OVCAR-3 ovarian given this compound: `O=c1cc(NC2CCN(CCCc3ccccc3)CC2)c2cc(Cl)ccc2o1`
Return: -16.6

Enquiry: Would you mind doing `O=c1oc2ccc(I)cc2c(=O)n1-c1ccc(Br)cc1F` as well?
Return: 5.84

Enquiry: Would you mind doing `COc1ccccc1C(=O)O/N=C(\N)Cc1cccc2ccccc12` as well?
Return: 4.24

Enquiry: Would you mind doing `c1ccc2c(c1)oc1cc3sccc3nc12` as well?
Return: 107

Enquiry: Would you mind doing CN1C(=O)N(C)C2(c3ccccc3)n3c(s/c(=C\c4ccccc4)c3=O)=NNC12c1ccccc1 (stereo unspecified) as well?
Return: 103

---
Enquiry: Return growth measured with OVCAR-3 ovarian given this compound: `COc1cccc(/C=C/C(=O)c2c(C)nc3ccccc3c2/C=C/c2ccccc2)c1OC`
Return: 2.68

* * *

test system: HCT-116 colon; assay: NCI-60 one-dose screen, 48 h; conditions: 10 µM unless noted
About 83,000 compounds went through this panel and 20% of them were active in at least one assay; those are over-represented in the sample as a whole. The source made the active and inactive calls. Rule for the calls: active = growth percent below 10; inactive = the rest.
Your reply should match one of these outcome classes. active, inactive

Enquiry: Fill in: this test's call for `O=C(Nc1ccc(N2CCNCC2)cn1)c1[nH]ncc1Nc1ncnc2sc3c(c12)CCC3` is ___
Return: active

Enquiry: Would you mind doing `CCCCCCc1cc2cc(-c3nc4ccccc4[nH]3)c(=Nc3ccccc3C)oc2cc1O` as well?
Return: inactive

Enquiry: Would you mind doing `O=C(/C=C/c1ccc(F)cc1)c1ccc(Nc2nc(NCCO)nc(Nc3ccc(Cl)cc3)n2)cc1` as well?
Return: active

---
Enquiry: Fill in: this test's call for `CN(C)c1ccc(N=Cc2ccc(N3CCOCC3)cc2)cc1` is ___
Return: inactive

Enquiry: Would you mind doing `O=C1NC(=O)C(=Cc2cn(Cc3cn(Cc4ccc(Cl)cc4Cl)nn3)c3ccccc23)C(=O)N1` as well?
Return: inactive

Enquiry: Would you mind doing COc1cc(C(C)n2cc(-c3ccccc3)nn2)ccc1OC1CCCCC1 (centres undefined) as well?
Return: inactive

Enquiry: Would you mind doing `COc1cc(CNC(=O)c2ccsc2Nc2ccnc(C(F)(F)F)c2)ccc1O` as well?
Return: inactive

Enquiry: Would you mind doing `CCN(CC)c1cc(C)c2cc(NC(=O)c3cccc(OC)c3)ccc2n1` as well?
Return: inactive

* * *

system: M14 melanoma; assay: NCI-60 one-dose screen, 48 h; conditions: 10 µM unless noted
Compounds without any hit were thinned out: in the full panel of roughly 83,000, 20% have a hit. Active and inactive are the calls of the source. The calls were made as follows: active = growth percent below 10; inactive = the rest.
Your reply should match one of these outcome classes. 1 (active), 0 (inactive)

For orientation, consider the following solved cases.
Enquiry: Fill in: this test's call for `Cc1sc2ncn(CC(=O)Nc3ccc(S(N)(=O)=O)cc3)c(=O)c2c1C` is ___
Return: 0

Enquiry: Would you mind doing `COc1cc(/C=C2\CN(C)C/C(=C\c3cc(CN4CCCC4)c(O)c(OC)c3)C2=O)cc(CN2CCCC2)c1O` as well?
Return: 0

Enquiry: Would you mind doing `CN(C)/C=C1\SC(=Nc2ccc(Cl)cc2)NC1=O` as well?
Return: 0

Enquiry: Would you mind doing `COc1ccc2sc(N(Cc3cccnc3)C(=O)c3ccc(C#N)cc3)nc2c1` as well?
Return: 0

---
Enquiry: Fill in: this test's call for `COc1cc2cc3c(=O)n4c(cc5cc(OC)ncc54)c(=O)n3c2cn1` is ___
Return: 0

Enquiry: Would you mind doing CCC1=C[C@]2(C3CC(=O)N(c4ccccc4)C3=O)CC(C(C)(C)C)C[C@@H]2[C@@H]2C(=O)N(c3ccccc3)C(=O)[C@H]12 (stereo partly specified) as well?
Return: 0

Enquiry: Would you mind doing COc1ccc(CCN2C(=O)/C(=C/c3ccc(C4Oc5ccccc5C5CC(c6cccc(OC)c6)=NN54)cc3)SC2=S)cc1 (stereo unspecified) as well?
Return: 0

Enquiry: Would you mind doing `O=C(/C=C/c1ccccc1)c1ccc(Nc2nc(NCCO)nc(Nc3ccc(Cl)cc3)n2)cc1` as well?
Return: 0

Enquiry: Would you mind doing CC(=O)SC1CC(=O)C=C2CCC3C4CCC(=O)OC4(C)CCC3C21C (stereo unspecified) as well?
Return: 0

Enquiry: Would you mind doing `COc1ccc(/C=C2\NC(=O)NC2=O)cc1O` as well?
Return: 0

Enquiry: Would you mind doing `C[n+]1c2ccccc2nc2ccc(NCCO)cc21` as well?
Return: 0

Enquiry: Would you mind doing CC1=CCC(OC(=O)C(C)(C)CCC(O)(C(=O)OC2(C(C)C)CCC3(C)OC3C2)C(C)C)(C(C)C)CC1 (stereo unspecified) as well?
Return: 1

Enquiry: Would you mind doing `COc1ccc(/C=C/C(=O)c2c(C)nc3ccccc3c2/C=C/c2ccccc2)cc1O` as well?
Return: 0

Enquiry: Would you mind doing `COc1cc2nc(-c3cccc4cccnc34)nc(NC3CCN(Cc4ccccc4)CC3)c2cc1OC` as well?
Return: 1

Enquiry: Would you mind doing CS(=O)(=O)Nc1ccc(C(=O)NC(C(=O)NO)c2ccc(-c3cccc(F)c3)cc2)cc1 (stereo unspecified) as well?
Return: 0

Enquiry: Would you mind doing `COc1cc(/C=C2\CN(C)C/C(=C\c3cc(CN4CCCCC4)c(O)c(OC)c3)C2=O)cc(CN2CCCCC2)c1O` as well?
Return: 0

Enquiry: Would you mind doing `CC(C)C[C@H](C(=O)N[C@@H](C)C(N)=O)N1CC=CCN(O)S1(=O)=O` as well?
Return: 0

Enquiry: Would you mind doing `COc1ccc(/C=C/C(=O)c2c(C)nc3ccccc3c2/C=C/c2ccccc2)c(OC)c1` as well?
Return: 0

Enquiry: Would you mind doing `C1CCN(c2nc(N3CCCCC3)nc(N3CCOCC3)n2)CC1` as well?
Return: 0

Enquiry: Would you mind doing COc1ccc(CN2CCCC(C(=O)c3ccc(C(F)(F)F)cc3)C2)c(O)c1 (stereo unspecified) as well?
Return: 0

Enquiry: Would you mind doing `CCCCCCCCCCOC(=O)c1ccccc1C(=O)OCCCC` as well?
Return: 0

* * *

system: SK-MEL-5 melanoma; experiment: NCI-60 one-dose screen, 48 h (100 = growth as untreated, 0 = no growth, -100 = all killed); settings: 10 µM unless noted
Compounds without any hit were thinned out: in the full panel of roughly 83,000, 20% have a hit.
Categories are defined by ranges of growth, namely Low = under 40%, Mid = from 40% up to 70%, High = 70% and over

Enquiry: Consider `O=c1c2cccc(F)c2sc2c(N3CCNCC3)nc3ccccc3c12` . To which growth class does it belong?
Return: Mid

Enquiry: Would you mind doing `O=C(Nc1ccc(N2CCNCC2)cn1)c1[nH]ncc1Nc1ncnc2sccc12` as well?
Return: Mid

Enquiry: Would you mind doing `COc1ccc(-c2cc(=O)c3c(OC)c4ccoc4c(/C=C/C=O)c3o2)cc1` as well?
Return: Low

Enquiry: Would you mind doing `CCOC(=O)c1cc2c(n1Cc1cc(OC)c(OC)c(OC)c1)-c1oncc1CCC2` as well?
Return: Low

Enquiry: Would you mind doing CCOc1cc2c(cc1OCC)C(c1cc(C)c(O)c(C)c1)NCC2 (stereo unspecified) as well?
Return: High

Enquiry: Would you mind doing `Cc1ccc2c(n1)C(=O)C(Oc1ccc(Br)cc1)=CC2=O` as well?
Return: High

Enquiry: Would you mind doing `O=C1Nc2ccccc2/C1=C/c1ccc[nH]1` as well?
Return: Mid

Enquiry: Would you mind doing `CCCCN1CCN(c2ccc3nc(-c4ccc5nc(-c6ccc(OCC)cc6)[nH]c5c4)[nH]c3c2)CC1` as well?
Return: Mid

Enquiry: Would you mind doing `NCCNc1nc2ccccc2c2c(=O)c3cc(F)cc(Cl)c3sc12` as well?
Return: High

Enquiry: Would you mind doing `NCCOc1ccccc1/C=C1\c2ccccc2-c2ccc([N+](=O)[O-])cc21` as well?
Return: Low

---
Enquiry: Consider `CCCN1CCN(c2ccc3nc(-c4ccc5nc(-c6cc(OC)ccc6OC)[nH]c5c4)[nH]c3c2)CC1` . To which growth class does it belong?
Return: High

Enquiry: Would you mind doing `CCOC(=O)C1=CN(C)C=C(C(=O)OCC)C1c1cc(Br)c(OCC)c(OC)c1` as well?
Return: Low

Enquiry: Would you mind doing `COc1ccccc1N1C(=N)S/C(=C\c2ccc(OCc3ccccc3F)cc2)C1=O` as well?
Return: High

Enquiry: Would you mind doing `CC1=C(C(=O)OCC2CCN(C(=O)OC(C)(C)C)CC2)[C@@H](c2cccc(C#N)c2)C2=C(CC(C)(C)CC2=O)N1` as well?
Return: Low

Enquiry: Would you mind doing `Cc1cccc2c(=O)c3c(sc12)c(NCCN)nc1ccccc13` as well?
Return: Low

// provenance: PubChem BioAssay (NCI)
